# experimental_target: human DAT (hDAT) (Homo sapiens, UniProt Q01959)
# Sequence (Q01959 whole entry): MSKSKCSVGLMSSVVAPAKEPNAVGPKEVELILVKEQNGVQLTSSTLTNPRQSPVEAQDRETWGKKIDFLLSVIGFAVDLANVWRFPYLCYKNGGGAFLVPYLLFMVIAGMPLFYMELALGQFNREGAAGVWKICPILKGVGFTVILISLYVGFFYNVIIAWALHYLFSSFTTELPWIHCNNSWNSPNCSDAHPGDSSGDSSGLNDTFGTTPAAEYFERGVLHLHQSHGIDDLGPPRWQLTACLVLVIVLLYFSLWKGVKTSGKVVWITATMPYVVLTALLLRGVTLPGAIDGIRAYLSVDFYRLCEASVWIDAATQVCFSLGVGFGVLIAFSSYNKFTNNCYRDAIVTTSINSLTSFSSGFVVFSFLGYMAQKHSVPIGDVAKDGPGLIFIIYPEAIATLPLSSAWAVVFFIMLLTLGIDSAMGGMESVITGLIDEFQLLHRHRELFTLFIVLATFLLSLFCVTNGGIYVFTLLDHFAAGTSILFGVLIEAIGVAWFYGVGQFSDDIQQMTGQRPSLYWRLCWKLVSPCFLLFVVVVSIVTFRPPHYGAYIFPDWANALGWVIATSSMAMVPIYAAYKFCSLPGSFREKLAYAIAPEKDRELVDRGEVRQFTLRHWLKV
# experiment_notes: [3H]dopamine uptake inhibition in CAD cells transiently expressing hDAT
# Assay type: cell-based
# experimental_conditions: IC50 DAT [3H]DA, value in parentheses
property_label: IC50 (nM)

{"columns": ["molecule", "experimental_target", "endpoint_unit", "obs_value"],
 "data": [
  ["COC(=O)[C@H]1[C@@H](c2ccc(Cl)c(Cl)c2)C[C@@H]2CC[C@H]1N2CCN1CCN(CCCCNC(=O)c2ccc3c(c2)C2(OC3=O)c3ccc(N4CCC4)cc3[Si](C)(C)c3cc(N4CCC4)ccc32)CC1 [Compound 14]", "human DAT (hDAT) (Homo sapiens, UniProt Q01959)", "nM", 160],
  ["COC(=O)[C@H]1[C@@H](c2ccc(Cl)c(Cl)c2)C[C@@H]2CC[C@H]1N2CCOCCOCCNC(=O)c1ccc2c(c1)C1(OC2=O)c2ccc(N3CCC3)cc2[Si](C)(C)c2cc(N3CCC3)ccc21 [Compound 10]", "human DAT (hDAT) (Homo sapiens, UniProt Q01959)", "nM", 1150],
  ["COC(=O)[C@H]1[C@@H](c2ccc(Cl)c(Cl)c2)C[C@@H]2CC[C@H]1N2CCOCCOCCNC(=O)c1ccc(C(=O)[O-])c(-c2c3ccc(=[N+]4CCC4)cc-3oc3cc(N4CCC4)ccc23)c1 [Compound 3]", "human DAT (hDAT) (Homo sapiens, UniProt Q01959)", "nM", 28]
]}

###

Property: Ki; scope: individual compounds
# experimental_target: DAT (Rattus norvegicus, UniProt P23977)
# Sequence (P23977 whole entry): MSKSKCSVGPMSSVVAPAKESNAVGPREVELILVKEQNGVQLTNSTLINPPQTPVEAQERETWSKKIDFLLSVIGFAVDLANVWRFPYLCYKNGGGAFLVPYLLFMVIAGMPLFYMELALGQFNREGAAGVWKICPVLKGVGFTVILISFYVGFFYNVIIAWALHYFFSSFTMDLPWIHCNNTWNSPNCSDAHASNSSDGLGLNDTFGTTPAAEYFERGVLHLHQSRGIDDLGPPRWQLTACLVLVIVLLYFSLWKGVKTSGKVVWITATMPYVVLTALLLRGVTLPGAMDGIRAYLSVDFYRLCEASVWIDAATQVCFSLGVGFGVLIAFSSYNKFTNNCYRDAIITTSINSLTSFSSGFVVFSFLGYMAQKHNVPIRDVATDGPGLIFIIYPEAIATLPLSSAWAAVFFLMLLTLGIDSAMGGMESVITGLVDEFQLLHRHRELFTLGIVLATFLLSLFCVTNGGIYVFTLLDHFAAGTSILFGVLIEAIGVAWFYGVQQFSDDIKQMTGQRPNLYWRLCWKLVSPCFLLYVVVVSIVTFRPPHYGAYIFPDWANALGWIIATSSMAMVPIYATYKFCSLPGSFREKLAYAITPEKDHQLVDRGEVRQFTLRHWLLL
# experiment_notes: DAT radioligand binding assay

{"columns": ["compound", "experimental_target", "endpoint_unit", "Ki"],
 "data": [
  ["COC(=O)[C@H]1[C@@H](c2ccc(Cl)c(Cl)c2)C[C@@H]2CC[C@H]1N2CCOCCOCCNC(=O)c1ccc(C(=O)[O-])c(-c2c3ccc(=[N+]4CCC4)cc-3oc3cc(N4CCC4)ccc23)c1 [Compound 3]", "DAT (Rattus norvegicus, UniProt P23977)", "nM", 6.03],
  ["COC(=O)[C@H]1[C@@H](c2ccc(Cl)c(Cl)c2)C[C@@H]2CC[C@H]1N2CCN1CCN(CCCCNC(=O)c2ccc3c(c2)C2(OC3=O)c3ccc(N4CCC4)cc3[Si](C)(C)c3cc(N4CCC4)ccc32)CC1 [Compound 14]", "DAT (Rattus norvegicus, UniProt P23977)", "nM", 38],
  ["COC(=O)[C@H]1[C@@H](c2ccc(Cl)c(Cl)c2)C[C@@H]2CC[C@H]1N2CCOCCOCCNC(=O)c1ccc2c(c1)C1(OC2=O)c2ccc(N3CCC3)cc2[Si](C)(C)c2cc(N3CCC3)ccc21 [Compound 10]", "DAT (Rattus norvegicus, UniProt P23977)", "nM", 112]
]}

###

# experimental_target: human DAT (hDAT) (Homo sapiens, UniProt Q01959)
# experiment_notes: [3H]dopamine uptake inhibition in CAD cells transiently expressing hDAT
# Format: cell-based
# experimental_conditions: pIC50 ± S.E.M. DAT [3H]DA, 20 nM [3H]DA, 5 min, rt
property_label: IC50 (nM)

{"columns": ["compound", "property_label", "obs_value"],
 "data": [
  ["COC(=O)[C@H]1[C@@H](c2ccc(Cl)c(Cl)c2)C[C@@H]2CC[C@H]1N2CCN1CCN(CCCCNC(=O)c2ccc3c(c2)C2(OC3=O)c3ccc(N4CCC4)cc3[Si](C)(C)c3cc(N4CCC4)ccc32)CC1 [Compound 14]", "IC50", 158],
  ["COC(=O)[C@H]1[C@@H](c2ccc(Cl)c(Cl)c2)C[C@@H]2CC[C@H]1N2CCOCCOCCNC(=O)c1ccc(C(=O)[O-])c(-c2c3ccc(=[N+]4CCC4)cc-3oc3cc(N4CCC4)ccc23)c1 [Compound 3]", "IC50", 28.2],
  ["COC(=O)[C@H]1[C@@H](c2ccc(Cl)c(Cl)c2)C[C@@H]2CC[C@H]1N2CCOCCOCCNC(=O)c1ccc2c(c1)C1(OC2=O)c2ccc(N3CCC3)cc2[Si](C)(C)c2cc(N3CCC3)ccc21 [Compound 10]", "IC50", 1150]
]}

###

Property: pKi; scope: individual molecules
# experimental_target: SERT (Rattus norvegicus)
# Sequence (P31652 whole entry): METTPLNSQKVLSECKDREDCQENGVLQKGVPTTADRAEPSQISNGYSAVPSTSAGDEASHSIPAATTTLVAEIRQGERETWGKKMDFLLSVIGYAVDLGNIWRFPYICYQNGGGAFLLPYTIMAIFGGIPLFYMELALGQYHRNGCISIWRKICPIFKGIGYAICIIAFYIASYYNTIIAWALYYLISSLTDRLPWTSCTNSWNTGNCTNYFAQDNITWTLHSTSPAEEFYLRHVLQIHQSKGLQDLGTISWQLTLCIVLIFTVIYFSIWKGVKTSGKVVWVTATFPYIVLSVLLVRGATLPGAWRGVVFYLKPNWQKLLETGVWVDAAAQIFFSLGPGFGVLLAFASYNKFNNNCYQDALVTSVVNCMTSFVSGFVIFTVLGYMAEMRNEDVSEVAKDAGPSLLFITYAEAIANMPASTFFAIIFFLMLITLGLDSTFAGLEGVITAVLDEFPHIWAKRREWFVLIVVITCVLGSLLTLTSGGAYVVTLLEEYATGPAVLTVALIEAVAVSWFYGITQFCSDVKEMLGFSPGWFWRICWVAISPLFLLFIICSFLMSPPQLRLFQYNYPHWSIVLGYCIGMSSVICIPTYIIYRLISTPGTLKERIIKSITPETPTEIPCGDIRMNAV
pKi: −log10 of the molar value.

{"columns": ["molecule", "experimental_target", "pKi"],
 "data": [
  ["COC(=O)[C@H]1[C@@H](c2ccc(Cl)c(Cl)c2)C[C@@H]2CC[C@H]1N2CCOCCOCCNC(=O)c1ccc2c(c1)C1(OC2=O)c2ccc(N3CCC3)cc2[Si](C)(C)c2cc(N3CCC3)ccc21 [Compound 10]", "SERT (Rattus norvegicus)", 6.82],
  ["COC(=O)[C@H]1[C@@H](c2ccc(Cl)c(Cl)c2)C[C@@H]2CC[C@H]1N2CCOCCOCCNC(=O)c1ccc(C(=O)[O-])c(-c2c3ccc(=[N+]4CCC4)cc-3oc3cc(N4CCC4)ccc23)c1 [Compound 3]", "SERT (Rattus norvegicus)", 7.38],
  ["COC(=O)[C@H]1[C@@H](c2ccc(Cl)c(Cl)c2)C[C@@H]2CC[C@H]1N2CCN1CCN(CCCCNC(=O)c2ccc3c(c2)C2(OC3=O)c3ccc(N4CCC4)cc3[Si](C)(C)c3cc(N4CCC4)ccc32)CC1 [Compound 14]", "SERT (Rattus norvegicus)", 7.42]
]}

Source listed as paper PMC8283659.
